# assay_target: human adenosine A3 receptor (Homo sapiens, UniProt P0DMS8)
# Construct: host or cells: CHO or HEK cells (membrane preparations)
# Sequence (P0DMS8 whole entry): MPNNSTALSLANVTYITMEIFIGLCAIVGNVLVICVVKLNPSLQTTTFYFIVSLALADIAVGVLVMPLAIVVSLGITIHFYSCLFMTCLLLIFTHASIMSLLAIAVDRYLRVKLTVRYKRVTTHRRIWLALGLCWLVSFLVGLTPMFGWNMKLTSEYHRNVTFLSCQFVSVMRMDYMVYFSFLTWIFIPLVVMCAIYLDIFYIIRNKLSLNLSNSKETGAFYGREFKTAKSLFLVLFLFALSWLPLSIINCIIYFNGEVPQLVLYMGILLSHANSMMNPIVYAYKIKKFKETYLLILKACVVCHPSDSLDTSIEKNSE
# procedure_details: Competition binding assay, A3 receptor, radioligand [3H]PSB-11
# condition_set: human receptor, vs [3H]PSB-11, mean ± SEM of three experiments
Measured Ki, listed per entry.

{"columns": ["chem_smiles", "assay_target", "assay_metric", "observed_value"],
 "data": [
  ["CCCn1c(=O)[nH]c2nc(-c3ccc(S(=O)(=O)N4CCC(F)CC4)cc3)[nH]c2c1=O", "human adenosine A3 receptor (Homo sapiens, UniProt P0DMS8)", "Ki", "> 1 µM"]
]}

## Task Annotate the compound "CCCn1c(=O)[nH]c2nc(-c3ccc(S(=O)(=O)Nc4ccnc(F)c4)cc3)[nH]c2c1=O" with its measured Ki.
## Result ~1 µM
